# Assay Explanation: NCI Yeast Anticancer Drug Screen. Data for the cln2 rad14 strain (AID 165);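 note: 0% = growth equal to vehicle treated cultures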
# Details: S. cerevisiae cln2 rad14 strain, at 50.0 µM, hits give high values
This is part of a sample that, as a whole, favours compounds with a hit. Of some 79,000 tested, about 15% had one in any assay. Where a SMILES comes first, the peptide text is derived from it.
Could you please report measured growth inhibition for the items listed next?
The response must be a number in % with no trailing unit.

growth inhibition reading for CC(C)CC(NC(=O)C(Cc1ccccc1)NC(=O)CNC(=O)CN)C(=O)O (stereo unspecified) (H-GGFL-OH; configuration not given here) : -5.05

What the record says about `O/N=C/c1ncccc1C1OCCO1` : growth inhibition is 9.8

Form: compound = CC1C=CCCC1COC(=O)C(=O)OCC1CC=CCC1C (stereo unspecified) ; growth inhibition = 9.25

growth inhibition for `CC1=C(O)CC(=O)C1` is 0.2

// growth inhibition lookup, compound = `COCOS(C)(=O)=O` , result: 4.8

Lookup result for `CCOC(=O)c1ccccc1OC(=O)Oc1ccccc1C(=O)OCC` ; measured growth inhibition: -23.1
